- Measured Target: Hexokinase HKDC1 (Homo sapiens)
- Test Protocol: HKDC1 hexokinase inhibitors, confirmation, biochemical, single concentration (AID 504710)
- Condition: recombinant HKDC1, G6PDH/diaphorase/resazurin fluorescence; at 20 µM; hits give high values
Value Kind: inhibition (%)
The answer is to be given in %; state only the numeric part.

These recorded examples may help you get a feel for the data.
Compound	inhibition, %
Cc1nc(COC(=O)c2cc(O)c3ccccc3c2O)cs1	39.5
Cc1cc2cc(CCNC(=O)c3ccc(S(=O)(=O)N4CCOCC4)cc3)c(=O)[nH]c2cc1C	45
O=c1c2ccccc2nc(/C=C/c2cccnc2)n1Cc1ccccc1	60.7
O=C(C1=C(c2ccccc2)C(=O)c2ccccc2C1=O)c1ccccc1	52
COc1ccc2cc(CCNC(=O)c3ccc(S(=O)(=O)N4CCCC4)cc3)c(=O)[nH]c2c1	59.8
O=C(O)CSc1cc(NS(=O)(=O)c2cccc([N+](=O)[O-])c2)c2ccccc2c1O	47.9

Return inhibition for the following compound: COCc1cc(C2C(C(=O)c3ccco3)=C(O)C(=O)N2CCOCCO)ccc1O (centres undefined)
-40.1

Return inhibition for the following compound: "CCc1ccc(S(=O)(=O)/N=C2/C=C(Sc3ncn[nH]3)C(=O)c3ccccc32)cc1"
73

Return inhibition for the following compound: "COC1=C(OC)C(=O)C(Sc2ccc3ccccc3c2)=CC1=O"
71.3
